These entries and their values trace back to PubChem BioAssay (NCI).

Test system: UACC-257 melanoma
METHOD: NCI tumour cell line growth inhibition, 48 h
ASSAY_ENDPOINT: TGI

Before answering, review these 5 worked examples.
CC(=O)OC/C=C/Cn1nc(Br)c(=O)[nH]c1=O	> 100 µM
Cc1cc(C2(c3cc(C)c(O)c4ncccc34)OC(=O)c3ccccc32)c2cccnc2c1O	> 100 µM
Cn1c(=O)c(-c2c(Cl)cccc2Cl)cc2cnc(Nc3ccc(N4CCOCC4)cc3)nc21	> 22.4 µM
Cc1[nH]n(C(=O)c2ccc(Cl)cc2)c(=O)c1/C=C1\C(O)=CC(=O)c2ccccc21	> 100 µM
COC(=O)C1=C(C)N(NC(=O)Nc2ccccc2)C2(N)N(NC(=O)Nc3ccccc3)C(C)=C(C(=O)OC)C12C(=O)OC (configuration not stated)	> 100 µM

### Prompt Fill blank: measured TGI of the molecule CCOC(=O)c1sc2nc(SC)nc3c2c1NCN3c1ccccc1Cl is ____.
### Response > 100 µM

### Prompt What about CCN(CC)CCCNc1nnc(C)c2[nH]c3ccccc3c12 ?
### Response 31.8 µM

### Prompt What about Nc1c(/C=C/c2cc3cc(C4=NCCN4)ccc3o2)[nH]c2cc(C3=NCCN3)ccc12 ?
### Response > 100 µM

### Prompt What about O=C1C[C@@]23CCC4(CC2=CCC[C@H]3O1)OCCO4 ?
### Response > 100 µM

### Prompt What about O=[N+]([O-])C1(CO)COC(CCc2ccccc2)OC1 (configuration not stated) ?
### Response > 100 µM

### Prompt What about COc1ccc(Sc2ccccc2[N+](=O)[O-])cc1 ?
### Response > 100 µM

### Prompt What about CCOC(=O)c1c(/C=N\Nc2ccccc2)nc2ccccc2c1-c1ccccc1 ?
### Response > 100 µM

### Prompt What about O=C(Nc1ccccc1)Oc1ccccc1C1CCCCC1 ?
### Response 40.2 µM

### Prompt What about NC(=O)NC(=O)C1CCC(=O)N1S(=O)(=O)c1ccc(Cl)cc1 (configuration not stated) ?
### Response > 100 µM

### Prompt What about Nc1nc(N)c(-c2ccccc2)c(C(=O)Nc2nccs2)n1 ?
### Response > 100 µM

### Prompt What about CC(C)(CCc1nc2ccccc2[nH]1)C(=O)O ?
### Response > 100 µM

### Prompt What about Nc1nc(Nc2cc(F)c(Cl)c(F)c2)cc(=O)[nH]1 ?
### Response > 100 µM

### Prompt What about c1csc(-c2[nH]nc3c2CCc2ccccc2-3)c1 ?
### Response 49.1 µM

### Prompt What about Cc1ccc(C)c(C(=O)CC2OC(O)C(Cl)C2Cl)c1 (configuration not stated) ?
### Response > 100 µM

### Prompt What about N#Cc1c(N)nc(N2CCOCC2)c(C#N)c1-c1ccc(Cl)cc1Cl ?
### Response 62.4 µM

### Prompt What about CC(C)[C@H](NC(=O)OCc1ccccc1)C(=O)N[C@H](/C=C/C(=O)OC(C)(C)C)CO ?
### Response > 100 µM

### Prompt What about COc1ccc(/[N+]([O-])=C/c2ccccc2OC(=S)S)cc1 ?
### Response 97.1 µM
